Where do these numbers come from? They come from ChEMBL document CHEMBL1132432.

molecular target: Human immunodeficiency virus type 1 reverse transcriptase (Human immunodeficiency virus 1, UniProt Q72547); assay: HIV-1 reverse transcriptase inhibitory activity against Wild Type Reverse transcriptase using (poly)rC600*(oligo)dGT as template primer.
Can you tell me IC50 for the items I'm about to list?

Note down IC50 recorded for COc1ccc2c(c1)N(C(=O)OC(C)C)C(CSC)C(S)=N2 (stereo not drawn)
8 nM

Note down IC50 recorded for CCOc1ccc(F)c(C2CC2NC(=O)Nc2ccc(Cl)cn2)c1F (stereo not drawn)
1.6 nM

Note down IC50 recorded for CCOc1ccc(Cl)c(C2CC2NC(=O)Nc2ccc(C#N)cn2)c1F (stereo not drawn)
2.7 nM

Note down IC50 recorded for CCOc1ccc(Cl)c(C2CC2NC(=O)Nc2ccc(Cl)cn2)c1F (stereo not drawn)
1.3 nM

Note down IC50 recorded for CCOc1ccc(F)c(C2CC2NC(=O)Nc2cc(Cl)cnn2)c1Cl (stereo not drawn)
16 nM

Note down IC50 recorded for CC(=O)c1ccc(F)c(C2CC2NC(=O)Nc2ccc(Br)cn2)c1O (stereo not drawn)
3.5 nM

Note down IC50 recorded for CCOc1ccc(F)c(C2CC2NC(=O)Nc2ccc(C#N)cn2)c1Cl (stereo not drawn)
4.3 nM

Note down IC50 recorded for `COc1c(C(C)=O)ccc(F)c1CCNC(=O)Nc1ccc(Cl)cn1`
224 nM

====

target: Human immunodeficiency virus type 1 reverse transcriptase (Human immunodeficiency virus 1) (UniProt Q72547); conditions: MT4
Description: Inhibition of wild type HIV-1 in MT-4 cell culture (human T cell line)
Doc: threshold 9 nM (exclusive). Items with ED50 beneath it return Criterion met; others return Criterion not met.

Find out if reported ED50 for CCC(=O)c1ccc(F)c(C2CC2NC(=O)Nc2ccc(C#N)cn2)c1O (stereo unspecified) is less than 9 nM
Criterion met

Find out if reported ED50 for CC(=O)c1ccc(F)c(C2CC2NC(=O)Nc2ccc(Br)cn2)c1O (stereo unspecified) is less than 9 nM
Criterion not met

Find out if reported ED50 for CCOc1ccc(F)c(C2CC2NC(=O)Nc2ccc(C#N)cn2)c1Cl (stereo unspecified) is less than 9 nM
Criterion met

Find out if reported ED50 for CC(=O)c1ccc(F)c(C2CC2NC(=O)Nc2ccc(C#N)cn2)c1O (stereo unspecified) is less than 9 nM
Criterion met

Find out if reported ED50 for CCC(=O)c1ccc(F)c(C2CC2NC(=O)Nc2ccc(Br)cn2)c1O (stereo in doubt; 18) is less than 9 nM
Criterion not met

Find out if reported ED50 for O=C(Nc1ccc(Cl)cn1)NC1CC1c1c(F)ccc(O)c1Cl (stereo unspecified) is less than 9 nM
Criterion not met

Find out if reported ED50 for CCC(=O)c1ccc(F)c(C2CC2NC(=O)Nc2ccc(Br)cn2)c1O (stereo in doubt; 17) is less than 9 nM
Criterion met

Find out if reported ED50 for `CCOc1ccc(F)c(CCNC(=O)Nc2ccc(Br)cn2)c1Cl` is less than 9 nM
Criterion not met

Find out if reported ED50 for `COc1c(C(C)=O)ccc(F)c1CCNC(=O)Nc1ccc(Cl)cn1` is less than 9 nM
Criterion not met

====

biological target: Human immunodeficiency virus type 1 reverse transcriptase (Human immunodeficiency virus 1) (UniProt Q72547); conditions: MT4
Description: Inhibitory activity against HIV-1 Asn 103 mutant in MT-4 cells.
measured_attribute: ED50 (µM)
Field: numeric (µM). Do not append units.

Note down ED50 recorded for `COc1ccc(OC)c(CCNC(=O)Nc2ccc(Cl)cn2)c1F`
1.13

Note down ED50 recorded for CCOc1ccc(Cl)c(C2CC2NC(=O)Nc2ccc(Cl)cn2)c1F (stereo unspecified)
0.78

Note down ED50 recorded for COc1ccc2c(c1)N(C(=O)OC(C)C)C(CSC)C(S)=N2 (stereo unspecified)
0.5

Note down ED50 recorded for CCOc1ccc(Cl)c(C2CC2NC(=O)Nc2ccc(C#N)cn2)c1F (stereo unspecified)
0.4

Note down ED50 recorded for CCOc1ccc(F)c(C2CC2NC(=O)Nc2ccc(Cl)cn2)c1F (stereo unspecified)
0.544

Note down ED50 recorded for CCC(=O)c1ccc(F)c(C2CC2NC(=O)Nc2ccc(Br)cn2)c1O (stereo in doubt; 18)
0.358

Note down ED50 recorded for CCC(=O)c1ccc(F)c(C2CC2NC(=O)Nc2ccc(C#N)cn2)c1O (stereo unspecified)
0.137
